# measured-target: WIZ protein (HiBit-WIZ fusion protein) (Homo sapiens, UniProt O95785+Q96SW2)
# Construct: expressed in transfected cells
# Sequence (O95785 whole entry, the tested form may be a part): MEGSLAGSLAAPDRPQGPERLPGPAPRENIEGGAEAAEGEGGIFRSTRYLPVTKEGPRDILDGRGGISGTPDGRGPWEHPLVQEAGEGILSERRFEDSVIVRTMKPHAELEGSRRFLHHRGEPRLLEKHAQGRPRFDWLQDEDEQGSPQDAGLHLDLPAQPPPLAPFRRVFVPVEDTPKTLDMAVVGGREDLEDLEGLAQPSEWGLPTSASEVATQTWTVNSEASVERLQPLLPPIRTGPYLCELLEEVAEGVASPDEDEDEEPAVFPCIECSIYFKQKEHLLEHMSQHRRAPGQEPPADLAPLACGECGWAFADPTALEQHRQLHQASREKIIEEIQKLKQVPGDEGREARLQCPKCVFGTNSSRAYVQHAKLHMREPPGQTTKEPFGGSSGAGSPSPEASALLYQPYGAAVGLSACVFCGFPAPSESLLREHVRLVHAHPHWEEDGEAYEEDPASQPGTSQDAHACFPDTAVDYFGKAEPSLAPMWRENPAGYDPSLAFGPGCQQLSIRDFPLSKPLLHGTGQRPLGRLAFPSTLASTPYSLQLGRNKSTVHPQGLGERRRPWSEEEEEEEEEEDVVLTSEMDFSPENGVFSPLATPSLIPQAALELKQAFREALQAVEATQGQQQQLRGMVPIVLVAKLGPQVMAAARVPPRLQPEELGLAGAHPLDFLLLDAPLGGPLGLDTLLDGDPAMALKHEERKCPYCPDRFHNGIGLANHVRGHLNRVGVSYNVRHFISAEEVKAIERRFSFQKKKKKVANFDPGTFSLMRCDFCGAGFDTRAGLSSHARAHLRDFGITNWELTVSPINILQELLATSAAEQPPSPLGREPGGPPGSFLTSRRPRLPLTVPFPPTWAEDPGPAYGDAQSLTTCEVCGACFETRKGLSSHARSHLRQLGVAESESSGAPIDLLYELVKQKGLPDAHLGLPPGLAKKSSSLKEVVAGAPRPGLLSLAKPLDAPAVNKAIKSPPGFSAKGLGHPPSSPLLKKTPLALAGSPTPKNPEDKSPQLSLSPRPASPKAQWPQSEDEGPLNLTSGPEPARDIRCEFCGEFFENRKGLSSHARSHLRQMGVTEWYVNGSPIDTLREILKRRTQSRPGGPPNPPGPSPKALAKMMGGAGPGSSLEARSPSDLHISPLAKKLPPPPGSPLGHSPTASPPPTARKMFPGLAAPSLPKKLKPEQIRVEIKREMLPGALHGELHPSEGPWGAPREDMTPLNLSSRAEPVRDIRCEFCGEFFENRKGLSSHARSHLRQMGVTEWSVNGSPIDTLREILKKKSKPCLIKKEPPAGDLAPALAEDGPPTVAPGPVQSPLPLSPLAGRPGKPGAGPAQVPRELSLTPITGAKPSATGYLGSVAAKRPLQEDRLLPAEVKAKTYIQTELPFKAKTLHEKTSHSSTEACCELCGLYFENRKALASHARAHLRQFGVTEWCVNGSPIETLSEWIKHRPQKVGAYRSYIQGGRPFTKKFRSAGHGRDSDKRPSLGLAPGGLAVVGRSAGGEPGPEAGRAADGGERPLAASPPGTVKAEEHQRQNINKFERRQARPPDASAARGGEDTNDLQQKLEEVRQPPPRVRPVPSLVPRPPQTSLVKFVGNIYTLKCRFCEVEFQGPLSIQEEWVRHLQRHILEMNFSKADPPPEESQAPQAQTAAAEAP
# Sequence (Q96SW2 whole entry, the tested form may be a part): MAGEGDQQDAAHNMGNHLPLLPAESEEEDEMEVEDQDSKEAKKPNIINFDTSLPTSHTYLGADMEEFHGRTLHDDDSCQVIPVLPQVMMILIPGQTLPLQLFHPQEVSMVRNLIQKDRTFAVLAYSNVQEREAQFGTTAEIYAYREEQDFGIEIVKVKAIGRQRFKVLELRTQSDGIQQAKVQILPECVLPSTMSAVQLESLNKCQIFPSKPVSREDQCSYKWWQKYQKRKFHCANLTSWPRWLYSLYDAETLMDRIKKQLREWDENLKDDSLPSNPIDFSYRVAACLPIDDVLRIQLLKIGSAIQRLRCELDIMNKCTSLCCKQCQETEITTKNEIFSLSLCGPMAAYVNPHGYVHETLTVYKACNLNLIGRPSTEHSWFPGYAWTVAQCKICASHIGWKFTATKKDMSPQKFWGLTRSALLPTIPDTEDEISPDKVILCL
# Sequence (Q16531 whole entry partner, the tested form may be a part): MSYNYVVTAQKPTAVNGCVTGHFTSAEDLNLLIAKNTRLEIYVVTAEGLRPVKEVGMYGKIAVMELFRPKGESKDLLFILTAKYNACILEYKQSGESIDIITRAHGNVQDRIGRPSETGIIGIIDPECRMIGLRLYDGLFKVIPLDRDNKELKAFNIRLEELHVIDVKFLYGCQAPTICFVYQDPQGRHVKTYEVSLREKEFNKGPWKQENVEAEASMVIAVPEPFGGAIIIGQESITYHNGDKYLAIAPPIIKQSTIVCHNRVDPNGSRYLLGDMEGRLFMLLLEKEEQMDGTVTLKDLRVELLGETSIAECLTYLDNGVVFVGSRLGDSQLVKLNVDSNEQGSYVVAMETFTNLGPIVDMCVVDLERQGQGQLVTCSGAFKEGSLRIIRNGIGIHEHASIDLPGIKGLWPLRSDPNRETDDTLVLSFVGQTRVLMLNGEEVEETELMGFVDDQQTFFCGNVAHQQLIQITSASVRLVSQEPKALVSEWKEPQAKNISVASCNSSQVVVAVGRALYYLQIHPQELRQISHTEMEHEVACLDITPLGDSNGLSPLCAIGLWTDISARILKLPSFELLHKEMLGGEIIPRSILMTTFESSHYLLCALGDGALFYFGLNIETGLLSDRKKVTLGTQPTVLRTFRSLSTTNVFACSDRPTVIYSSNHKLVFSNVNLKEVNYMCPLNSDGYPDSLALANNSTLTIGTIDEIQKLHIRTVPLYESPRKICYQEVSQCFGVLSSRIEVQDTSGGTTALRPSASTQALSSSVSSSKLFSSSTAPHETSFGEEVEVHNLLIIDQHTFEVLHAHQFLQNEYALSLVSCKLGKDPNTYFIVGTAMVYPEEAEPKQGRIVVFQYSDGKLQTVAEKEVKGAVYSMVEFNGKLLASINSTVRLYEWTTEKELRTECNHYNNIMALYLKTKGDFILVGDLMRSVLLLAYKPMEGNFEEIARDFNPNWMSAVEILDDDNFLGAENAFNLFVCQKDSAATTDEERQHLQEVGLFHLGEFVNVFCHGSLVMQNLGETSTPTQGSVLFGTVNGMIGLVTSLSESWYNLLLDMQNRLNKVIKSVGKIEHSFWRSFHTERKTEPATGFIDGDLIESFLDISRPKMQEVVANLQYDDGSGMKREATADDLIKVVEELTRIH
# test: Quantification of WIZ protein levels in HiBit tag fusion protein assay (WIZ HiBit assay in 293T cells)
# Format: cell-based
# particulars: HEK-293T, 100 − Amax, at 25 uM; 293T cells; read-out: % degradation of WIZ (100 − Amax)
# Method: The HiBit system from Promega was used to develop high-throughput and quantitative assays to measure changes in WIZ protein levels in response to compounds. […] The complementary fragment of Nanoluciferase (known as LgBit, from Promega), was added to the HiBit tag to form an active Nanoluciferase enzyme whose activity can be precisely measured. In this way, the levels of a fusion protein with the HiBit tag can be quantified in cell lysates. […]
assay-readout: Dmax at 25 µM (%)
Give the quantity in %, number only.

Example entries and their recorded answers appear below.
| compound | measurement-units | Dmax at 25 µM |
| --- | --- | --- |
| O=C1CCN(c2cnn3ccc(CC4CCN(S(=O)(=O)CC5CC5)CC4)cc23)C(=O)N1 | % | 87 |
| CC(c1cccnc1)N1CCN(Cc2ccn3ncc(N4CCC(=O)NC4=O)c3c2)CC1 (centres unmarked) | % | 40 |
| O=C1CCN(c2cnn3ccc(CC4CCN(CC5CC5)CC4)cc23)C(=O)N1 | % | 89 |
| C[C@H]1C[C@H](Cc2ccn3ncc(N4CCC(=O)NC4=O)c3c2)CCN1CC1CCCCCC1 | % | 90 |
| C[C@H]1CN(Cc2ccn3ncc(N4CCC(=O)NC4=O)c3c2)CCN1C(=O)C1CCC1 | % | 35 |

Asked: Please report the recorded Dmax at 25 µM for CCS(=O)(=O)N1CCN(Cc2ccn3ncc(N4CCC(=O)NC4=O)c3c2)C[C@@H]1C .
Given back: 35

Asked: Please report the recorded Dmax at 25 µM for CO[C@H]1CC[C@H](CN2CCN(Cc3ccn4ncc(N5CCC(=O)NC5=O)c4c3)CC2)CC1 .
Given back: 82

Asked: Please report the recorded Dmax at 25 µM for O=C1CCN(c2cnn3ccc(CC4CCCNCC4)cc23)C(=O)N1 (centres unmarked) .
Given back: 49

Asked: Please report the recorded Dmax at 25 µM for CC(C)CN1CCN(Cc2ccn3ncc(N4CCC(=O)NC4=O)c3c2)C[C@H]1C .
Given back: 65

Asked: Please report the recorded Dmax at 25 µM for CC(C)CN1CCC(C(C)c2ccn3ncc(N4CCC(=O)NC4=O)c3c2)CC1 (centres unmarked) .
Given back: 86

Asked: Please report the recorded Dmax at 25 µM for O=C1CCN(c2cnn3ccc(CN4CCN(C(=O)C5(C(F)(F)F)CC5)CC4)cc23)C(=O)N1 .
Given back: 29

Asked: Please report the recorded Dmax at 25 µM for O=C1CCN(c2cnn3ccc(CC4CCCN(CC5CCCCC5)CC4)cc23)C(=O)N1 (centres unmarked) .
Given back: 69

Asked: Please report the recorded Dmax at 25 µM for C[C@H]1CN(Cc2ccn3ncc(-n4ccc(=O)[nH]c4=O)c3c2)CCN1CC1CCC(F)(F)CC1 .
Given back: 85

Asked: Please report the recorded Dmax at 25 µM for C[C@H]1CN(Cc2ccn3ncc(N4CCC(=O)NC4=O)c3c2)CCN1CC1CCOCC1 .
Given back: 85

Asked: Please report the recorded Dmax at 25 µM for O=C1CCN(c2cnn3ccc(CN4CCN5CCOC[C@@H]5C4)cc23)C(=O)N1 .
Given back: 64

Asked: Please report the recorded Dmax at 25 µM for O=C1CCN(c2cnn3ccc(CC4CCN(C5COC5)CC4)cc23)C(=O)N1 .
Given back: 83

Asked: Please report the recorded Dmax at 25 µM for CC(C)CN1[C@@H](C)CN(Cc2ccn3ncc(N4CCC(=O)NC4=O)c3c2)C[C@@H]1C .
Given back: 61
